# measurement_target: P. falciparum apicoplast DNA polymerase (Pf-apPOL) (Plasmodium falciparum)
# test: Fluorescence-based high-throughput DNA polymerase assay (molecular beacon), primary screen and dose-response
# Format: biochemical
# condition_label: DRC-2; read at 180'; concentration 2.5
experimental_readout: % inhibition apPOL 180' 2.5 (%)
One number for each entry, in %.

>>> reported_result("Cc1cc2[nH]c(C(=O)Nc3ccc(F)cc3)c(CN3CCOCC3)c2s1")
-2.7
>>> reported_result("C#CC(C=CC)OC(=O)c1ccccc1C(=O)O (centres unmarked)")
-4
>>> reported_result("CCCc1ccc(Oc2coc3cc(OC)ccc3c2=O)cc1")
-0.201

Please give % inhibition apPOL 180' 2.5 for each item listed below.
1. CC(=O)OCC1=C(C(=O)[O-])N2C(=O)[C@@H](NC(=O)Cc3cccs3)[C@H]2SC1.[Na+]
2. Cc1ccsc1Cn1c(C)ccc1C
3. N#Cc1c(O)nc(N2CCCCC2)nc1-c1ccc2c(c1)OCO2
4. Cn1nc(-c2nc(-c3ccccc3)no2)c2c1CCN(C(=O)Cc1cccs1)C2
5. COc1ccccc1CC(=O)N1CCc2c(nc3cc(-c4ccccc4Cl)[nH]n3c2=O)C1
6. O=C1CSC2=NC3=C(CCc4ccccc43)C(c3cccs3)N12 (centres unmarked)
7. Cc1nc(C)c2c(n1)N(CC1CCCCC1)C(=O)CC2
8. Nc1cc(Oc2ccc(O)c(N)c2)ccc1O

Result string:
-0.311
-6
5.4
3.22
-1
-8
18
31

Please give % inhibition apPOL 180' 2.5 for each item listed below.
1. O=C(CCc1csc(NC(=O)Nc2ccccc2)n1)Nc1nc2ccccc2s1
2. CC(=O)Nc1cc(C(=O)c2cccs2)nn(-c2ccc(Cl)cc2)c1=O
3. Cc1cccc(-c2noc(C(=O)NNC(=O)C(Cl)(Cl)Cl)n2)c1
4. Cc1ccc(N2CCC(NC(=O)Cc3cccs3)C2=O)cc1C (centres unmarked)
5. Cn1nc(-c2nnc(-c3ccccc3F)o2)c2c1CCN(C(=O)c1ccccc1Cl)C2
6. COc1ccc(/C=C/c2cc(C(=O)O)c3ccccc3n2)cc1

Result string:
1. -8
2. -1.41
3. -1
4. -1.11
5. 15
6. 34

###

# measurement_target: P. falciparum apicoplast DNA polymerase (Pf-apPOL) (Plasmodium falciparum, UniProt Q8ILY1)
# Sequence (Q8ILY1 entry or part of it): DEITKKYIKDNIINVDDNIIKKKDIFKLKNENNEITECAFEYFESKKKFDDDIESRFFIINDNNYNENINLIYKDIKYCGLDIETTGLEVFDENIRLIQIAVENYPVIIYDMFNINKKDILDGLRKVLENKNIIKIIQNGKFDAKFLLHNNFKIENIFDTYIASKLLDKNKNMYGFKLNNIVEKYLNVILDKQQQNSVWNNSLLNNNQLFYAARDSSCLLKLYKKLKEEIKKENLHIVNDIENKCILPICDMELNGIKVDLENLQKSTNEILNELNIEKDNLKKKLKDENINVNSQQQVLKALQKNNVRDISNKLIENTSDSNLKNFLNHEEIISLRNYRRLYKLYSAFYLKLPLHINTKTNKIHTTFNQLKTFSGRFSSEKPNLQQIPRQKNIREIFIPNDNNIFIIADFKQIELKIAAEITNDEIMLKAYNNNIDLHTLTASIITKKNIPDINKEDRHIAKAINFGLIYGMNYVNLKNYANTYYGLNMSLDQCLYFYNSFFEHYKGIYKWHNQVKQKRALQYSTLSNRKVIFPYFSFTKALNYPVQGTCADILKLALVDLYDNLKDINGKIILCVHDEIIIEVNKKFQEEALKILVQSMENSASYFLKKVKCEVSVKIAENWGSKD
# test: Fluorescence-based high-throughput DNA polymerase assay (molecular beacon), primary screen and dose-response;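 as to % inhibition Apol 40': compound concentration given in µM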
# Type: biochemical
# condition_label: DRC-2; 40'; concentration 20
Label rule, in plain words: % inhibition Apol 40' of 50% and up is T, under 50% is F.

Query string: Quick check, % inhibition Apol 40' >= 50%? `Cc1ccc(C(=O)/C=C/C=C/C=C/N(C)C)o1`
Result string: F

Query string: Same again, this time with `O=C1N/C(=N/c2ccccc2Cl)S/C1=C/c1ccc([N+](=O)[O-])o1`
Result string: T

Query string: Same again, this time with `COc1ccc(CNC(=O)Cn2nc3c(c2NC(=O)Cc2cccs2)CSC3)cc1`
Result string: F

Query string: Same again, this time with CN(C)C1C(c2ccccc2)=C(c2ccccc2)SC(c2ccccc2)C1[N+](=O)[O-] (centres unmarked)
Result string: T

Query string: Same again, this time with Cl.NC(CO)C(=O)NNCc1ccc(O)c(O)c1O (centres unmarked)
Result string: T

Query string: Same again, this time with `CCCCCc1c2c(cc(O)c1C(=O)O)OC(=O)c1c(cc(OC)cc1C(=O)CCCC)O2`
Result string: F

Query string: Same again, this time with `CCCCCCCCCCCCCCCCCC(=O)CCN(C)C`
Result string: F

Query string: Same again, this time with `Oc1cccc2ccc(/C=C/c3ccc4c(c3)OCO4)nc12`
Result string: T

Query string: Same again, this time with `O=C(NCC1CCN(C2CCCC2)CC1)C(=O)NC1CCCC1`
Result string: F

Query string: Same again, this time with `COc1ccc(-c2c(C(F)(F)F)nn3c(=O)cc(-c4cccc([N+](=O)[O-])c4)[nH]c23)cc1`
Result string: T

###

# measurement_target: P. falciparum apicoplast DNA polymerase (Pf-apPOL) (Plasmodium falciparum)
# test: Fluorescence-based high-throughput DNA polymerase assay (molecular beacon), primary screen and dose-response
# Type: biochemical
# condition_label: DRC-2; 5'; concentration 40
Label rule, in plain words: % inhibition Apo pol 5' of 40% and up is TRUE, under 40% is FALSE.

// below: answered compounds
>>> class_name("CC(NC(=O)Cc1cc(=O)[nH]c(SCc2cccc(Cl)c2)n1)c1ccccc1 (stereo not shown)")
"FALSE"
>>> class_name("O=C(Cn1ccc2c(=O)[nH]ccc21)Nc1cccc(Cl)c1 [Molecule 23, O=C(Cn1ccc2c1cc[nH]c2=O)Nc1cccc(c1)Cl]")
"FALSE"
>>> class_name("Cc1cccc2c(C(=O)NC(C)C)cc(N(C)C)nc12")
"TRUE"
>>> class_name("NC(=O)c1cc[n+](CC2=C(C(=O)[O-])N3C(=O)[C@@H](NC(=O)[C@@H](c4ccccc4)S(=O)(=O)[O-])[C@H]3SC2)cc1.[Na+]")
"TRUE"
>>> class_name("O=C(Nc1c2c(nn1-c1ccccc1)CSC2)c1ccco1")
"TRUE"
>>> class_name("Cc1cc2[nH]c(C(=O)Nc3ccc(F)cc3)c(CN3CCOCC3)c2s1")
"FALSE"

Query string: Quick check, % inhibition Apo pol 5' >= 40%? `CCCCCCCCCCCCCCCCCC(=O)CCN(C)C`
Result string: FALSE

Query string: Same again, this time with `O=C(O)C(=O)Nc1nc(-c2ccc3c(c2)OCCO3)cs1`
Result string: FALSE

Query string: Same again, this time with `NS(=O)(=O)c1ccc(NC(=O)c2ccc(N3C(=O)CCC3=O)cc2)cc1`
Result string: TRUE

Query string: Same again, this time with O=c1[nH]c2ccc(Br)cc2c(-c2ccccc2)c1C1=NNC(c2ccco2)C1 (stereo not shown)
Result string: TRUE

Query string: Same again, this time with O=C1N=C(Nc2cccc(Cl)c2Cl)S/C1=C\c1ccco1 [Molecule 3, O=C1N=C(S/C/1=C\c1ccco1)Nc1cccc(c1Cl)Cl]
Result string: FALSE

Query string: Same again, this time with `Nc1c(S(=O)(=O)O)cc(Nc2ccccc2)c2c1C(=O)c1ccccc1C2=O`
Result string: TRUE

###

Kindly state % inhibition apPOL 180' for each of the entries shown.
# measurement_target: P. falciparum apicoplast DNA polymerase (Pf-apPOL) (Plasmodium falciparum, UniProt Q8ILY1)
# test: Fluorescence-based high-throughput DNA polymerase assay (molecular beacon), primary screen and dose-response
# Type: biochemical
# condition_label: DRC-1; 180'; concentration 2.5
One number for each entry, in %.

>>> reported_result("CN(C)C=C1SCc2ccccc2C1=O [Molecule 77, CN(C=C1SCc2c(C1=O)cccc2)C]")
-2.727
>>> reported_result("COCCN(CCOC)Cc1c(O)ccc2c1OC(=Cc1cc(Br)ccc1OC)C2=O [KU0198471]")
3.8606
>>> reported_result("O=[N+]([O-])c1cc2c(cc1CN1CCN(c3cccc(Cl)c3)CC1)OCO2 [KU0005610]")
-5.629

Please give % inhibition apPOL 180' for each item listed below.
1. O=C(Nc1c2c(nn1-c1ccc(Oc3ccccc3)cc1)CSC2)c1ccco1 [KU0055927]
2. O=C(NC(C(Cl)Cl)S(=O)(=O)c1ccccc1)c1ccccc1 (stereo not drawn) [KU0045239]
3. O=c1[nH]c2ccc([N+](=O)[O-])cc2c(-c2ccccc2)c1Sc1nc2ccccc2o1 [KU0067471]
4. COc1cccc(C(=O)N2CCc3c(nc4cc(-c5ccccc5)[nH]n4c3=O)C2)c1OC [Molecule 22]
5. O=C1C(=Cc2ccncc2)Oc2c1ccc1c2CN(Cc2ccc3c(c2)OCO3)CO1 [KU0199357]
6. CCCCCCCCCCCCCCCCCC(=O)CCN(C)C [KU0271928]

Result string:
[-2.927, 5.305, 7.341, -5.7, 18.2, 2.105]

###

# measurement_target: bacteriophage T4 DNA polymerase (Enterobacteria phage T4, UniProt P04415)
# Construct: made in house
# Sequence (P04415 1-898): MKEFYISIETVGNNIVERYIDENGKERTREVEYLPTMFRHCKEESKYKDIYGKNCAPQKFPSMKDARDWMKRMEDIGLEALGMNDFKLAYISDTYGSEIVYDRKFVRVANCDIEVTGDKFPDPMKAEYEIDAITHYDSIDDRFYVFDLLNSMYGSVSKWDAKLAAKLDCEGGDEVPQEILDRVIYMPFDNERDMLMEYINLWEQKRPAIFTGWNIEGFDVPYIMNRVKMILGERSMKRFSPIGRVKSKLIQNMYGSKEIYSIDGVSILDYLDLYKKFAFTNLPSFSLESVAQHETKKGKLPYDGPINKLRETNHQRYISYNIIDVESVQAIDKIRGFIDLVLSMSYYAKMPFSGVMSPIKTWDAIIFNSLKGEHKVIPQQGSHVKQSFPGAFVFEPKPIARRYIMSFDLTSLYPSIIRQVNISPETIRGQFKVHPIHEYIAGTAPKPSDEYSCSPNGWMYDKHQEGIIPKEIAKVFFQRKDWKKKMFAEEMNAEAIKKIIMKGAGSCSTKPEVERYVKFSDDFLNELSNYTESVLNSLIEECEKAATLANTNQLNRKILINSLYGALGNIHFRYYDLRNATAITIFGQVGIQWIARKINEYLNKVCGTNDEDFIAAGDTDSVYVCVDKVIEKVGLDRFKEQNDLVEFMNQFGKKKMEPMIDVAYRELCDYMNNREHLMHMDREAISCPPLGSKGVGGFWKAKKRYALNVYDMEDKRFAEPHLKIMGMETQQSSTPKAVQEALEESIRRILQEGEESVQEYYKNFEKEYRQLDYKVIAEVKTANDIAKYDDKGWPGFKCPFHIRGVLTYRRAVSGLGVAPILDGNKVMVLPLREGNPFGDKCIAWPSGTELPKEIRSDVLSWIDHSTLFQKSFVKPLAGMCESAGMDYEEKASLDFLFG
# test: Counter-screen against bacteriophage T4 DNA polymerase
# Type: biochemical
# condition_label: DRC-1; read at 70'; concentration 5
Kindly state % inhibition T4 70' 5 for each of the entries shown.
Returns: string containing the number followed by the unit.

Look over these answered cases.
>>> reported_result("CC(=O)OCC1=C(C(=O)[O-])N2C(=O)[C@@H](NC(=O)Cc3cccs3)[C@H]2SC1.[Na+] [Molecule 73]")
"11.8887%"
>>> reported_result("Cn1nc(-c2nc(-c3ccccc3)no2)c2c1CCN(C(=O)Cc1cccs1)C2 [Molecule 58]")
"0.684%"

Consider the additional compound presented here.
Query string: Look at this compound and give its reported % inhibition T4 70' 5. O=C(c1ccccc1)N1CCc2c(nc3cc(-c4ccccc4)[nH]n3c2=O)C1 [Molecule 30]
Result string: -7.504%

Data origin: paper PMC9090415
